composite z-score values by entry
- System: XIP peptide (Xip251-270)
- measurement description: small-molecule binders of XIP peptide, primary screen, biochemical, small-molecule microarray, fluorescence 635/667 nm, 0.5 µg/mL protein (AID 1183)
- condition notes: small-molecule microarray binding, fluorescence 635 nm; higher = more signal
Provide a numeric answer; units are not to be included.

In the examples that follow, each entry is paired with its recorded composite z-score.
[Q] Look up composite z-score: `C=CC[C@@H]1C=C[C@H](ON=Cc2ccc(C(=O)N3[C@H](c4ccc(C)cc4)[C@@H](C)CC[C@H]3C(=O)OC)cc2)[C@@H](CO)O1`
[A] 0.379

[Q] Look up composite z-score: `COCCOC(=O)N1C(=O)[C@@]2(c3cc(C#Cc4ccc(OC)cc4)ccc31)[C@H](C(=O)N1CCN(c3ncccn3)CC1)[C@H]1C(=O)O[C@H](c3ccccc3)[C@H](c3ccccc3)N1[C@@H]2c1ccc(OCCO)cc1`
[A] 0.43

[Q] Look up composite z-score: `CC(CCC(=O)OC[C@H]1O[C@H](C#Cc2ccccc2)C=C[C@@H]1Oc1ccc(C)cc1)=NOC[C@@H](O)[C@H]1O[C@@H]2OC(C)(C)O[C@@H]2[C@H]1O`
[A] -0.823

***
[Q] Look up composite z-score: `Cc1cc(C)c(-c2cc([C@H](C)ON=C3[C@H]4CCn5c(=O)n(-c6ccccc6)c(=O)n5[C@H]4[C@H](O)[C@@H]4O[C@H]34)on2)c(C)c1`
[A] 0.0933

[Q] Look up composite z-score: COC(=O)CC1OC1[C@H](C)[C@@H](OC)C(C)C (stereo not given in full)
[A] -0.739

[Q] Look up composite z-score: `CCCNC(=O)[C@@H]1c2ccccc2C(=O)N(c2ccc(C)cn2)[C@H]1c1ccc(CO)cc1`
[A] -0.314

[Q] Look up composite z-score: `COc1ccccc1CN1C(=O)c2ccccc2[C@@H](C(=O)NCC(F)(F)F)[C@@H]1c1ccc(CO)cc1`
[A] 0.561

* * *

- measurement description: COS7 lysate on small-molecule microarray, probe aHis, 635 nm (AID 1123);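 note: z-score combines 667nm fluorescence intensity with signal-to-noise per printed compound spot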
- condition notes: COS7 cell lysate, fluorescence, higher = more signal
measured metric: composite z-score

In the examples that follow, each entry is paired with its recorded composite z-score.
[Q] Look up composite z-score: `COc1cccc([C@H]2Oc3ccc(OC)cc3C(=NO[C@H](C)c3cn([C@@H]4COC[C@H]4O)nn3)[C@@H]2O)c1`
[A] -0.162

[Q] Look up composite z-score: `O=C(CS)NCCCCCNC(=O)[C@@H]1C[C@@H]2C(=O)N[C@@H](Cc3ccccc3)C(=O)N2[C@@H]1c1ccc(O)cc1`
[A] 1.37

[Q] Look up composite z-score: `C[C@H]1Cc2c(-c3ccccc3)nc3c(c2CO1)CN(CCOc1ccccc1)CC3`
[A] 0.71

***
[Q] Look up composite z-score: `COCCOC(=O)N1C(=O)[C@@]2(c3cc(C#Cc4ccc(OC)cc4)ccc31)[C@H](c1ccc(O)cc1)N1[C@H](c3ccccc3)[C@H](c3ccccc3)OC(=O)[C@H]1[C@@H]2C(N)=O`
[A] 1.52

* * *

- Tested on: wheat germ agglutinin (Triticum aestivum), Alexa647-labelled
- measurement description: wheat germ agglutinin binders on compound microarrays, profiling panel, artefact control for SMM control-protein annotation, biochemical, small-molecule microarray, 635/667 nm fluorescence (AID 1140);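 note: score merges 667 nm feature emission with signal to noise over triplicate slides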
- condition notes: WGA-A647 binding, 635 nm fluorescence, higher = more signal
composite z-score values by entry
Provide a numeric answer; units are not to be included.

[Q] # query: composite z-score | item `CN(C)C(=O)[C@@]1(Cc2ccccc2)N=C(c2ccc(OCCCO)cc2)O[C@H]1c1ccccc1CN=[N+]=[N-]` | system: wheat germ agglutinin (Triticum aestivum), Alexa647-labelled
[A] 1.25

***
[Q] # query: composite z-score | item `CCOC(=O)CCN1C(=O)[C@H]2[C@H]3[C@H](O)[C@H](O)CC(=NOC[C@@H](O)COCc4ccco4)[C@H]3CC[C@H]2C1=O` | system: wheat germ agglutinin (Triticum aestivum), Alexa647-labelled
[A] 0.288

[Q] # query: composite z-score | item `CO[C@@H]1COC(=O)[C@@H]2CCCN2C(=O)[C@@H](C)COC(=O)[C@H](COCc2ccccc2)NC(=O)CC=C[C@H]1C` | system: wheat germ agglutinin (Triticum aestivum), Alexa647-labelled
[A] -0.07

[Q] # query: composite z-score | item `CC(C)[Si]1(C(C)C)O[C@@H](c2ccccc2)c2cc(C3CC3)nc(-c3ccccc3)c21` | system: wheat germ agglutinin (Triticum aestivum), Alexa647-labelled
[A] 0.105

[Q] # query: composite z-score | item `CC(C)C[C@@H]1NC(=O)[C@H]2C[C@@H](C(=O)NCCCCCCN(C)C)[C@@H](c3cccc(OCCO)c3)N2C1=O` | system: wheat germ agglutinin (Triticum aestivum), Alexa647-labelled
[A] 0.591

[Q] # query: composite z-score | item `COc1ccc(COC(=O)NN=C2C[C@@H](O)[C@@H](O)[C@@H]3[C@@H]4C(=O)N(Cc5ccc6c(c5)OCO6)C(=O)[C@@H]4CC[C@@H]23)cc1` | system: wheat germ agglutinin (Triticum aestivum), Alexa647-labelled
[A] 0.247

[Q] # query: composite z-score | item `CN(C)CCCNC(=O)[C@@H]1c2ccccc2C(=O)N(Cc2ccccc2)[C@H]1c1ccc(CO)cc1` | system: wheat germ agglutinin (Triticum aestivum), Alexa647-labelled
[A] -0.0107

* * *

composite z-score values by entry
- measurement description: binders of probe aHhip on microarray, primary screen, stem cell growth factor project, biochemical, small-molecule microarray, fluorescence 635/667 (AID 1087);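 note: score merges spot fluorescence at 667nm with spot signal to noise ratio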
- condition notes: higher = more signal
Provide a numeric answer; units are not to be included.

[Q] Look up composite z-score: `CC(C)=CCCC(C)=CCON=C1C[C@@H](O)[C@@H](O)[C@@H]2[C@@H]3C(=O)N(C[C@@H]4CCCO4)C(=O)[C@@H]3CC[C@@H]12`
[A] 0.0749

[Q] Look up composite z-score: `CCc1cc2c(nc1CC)CCN(CCC(C)=NO[C@@H](C)c1cc(-c3c(C)cc(C)cc3C)no1)C2`
[A] 0.0187

[Q] Look up composite z-score: `C[C@@H](c1ccccc1)N1C(=O)[C@H]2[C@H]3[C@H](O)C=CC(=O)[C@@H]3CC[C@H]2C1=O`
[A] -0.0738

[Q] Look up composite z-score: `CCCC=C(CCC)[C@@H](NC(=O)c1ccc(-c2ccccc2)cc1)c1ccc(C(=O)OC)cc1`
[A] 1.81

* * *

- Tested on: XIP peptide (Xip251-270) binding
- measurement description: small-molecule binders of XIP peptide, primary screen, biochemical, small-molecule microarray, fluorescence 635/667 nm, 0.1 µg/mL protein (AID 1182)
- condition notes: fluorescent protein binding, 635 nm, higher = more signal, called active from +8 up or from −8 down
Activity calls are given as the source filed them.
measured metric: composite z-score

In the examples that follow, each entry is paired with its recorded composite z-score.
[Q] Look up composite z-score: `C=CC[C@@H]1C=C[C@H](ON=C[C@@H](OC)[C@H](C)C=CCC(=O)OC)[C@@H](CO)O1`
[A] -0.0604 (inactive)

[Q] Look up composite z-score: `CC(=O)C[C@H](O)[C@@H](NC(=O)OC(C)(C)C)C(C)C`
[A] -0.0306 (inactive)

***
[Q] Look up composite z-score: `O=C1O[C@@H](c2ccccc2)[C@@H](c2ccccc2)N2[C@@H](c3ccc(O)cc3)[C@]3(C(=O)Nc4ccccc43)[C@@H](C(=O)O)[C@H]12`
[A] 1.27 (inactive)

[Q] Look up composite z-score: `CO[C@H]1COC(=O)CC=C[C@H](C)[C@@H](NS(=O)(=O)c2ccc(C)cc2)COC(=O)CC=C[C@@H]1C`
[A] -0.116 (inactive)

[Q] Look up composite z-score: O=C1CCCC=C1C(O)CCOCc1ccccc1 (configuration not stated)
[A] -0.294 (inactive)

[Q] Look up composite z-score: `CC(C)[C@@H](OCc1ccccc1)[C@H](C)C=NO[C@H](C)c1cn([C@H](CO)Cc2ccccc2)nn1`
[A] -0.2 (inactive)

[Q] Look up composite z-score: `COC(=O)[C@H](C)NC(=O)[C@@H](C)CO`
[A] 0.316 (inactive)

* * *

- measurement description: basal RPMI8226 mitochondrial membrane potential changes, profiling panel, cell-based, JC-1 fluorescence, 24 h, 100 nL compound (AID 1169)
- condition notes: RPMI8226 myeloma, JC-1 mitochondrial potential fluorescence, higher = more signal
measured metric: z-score
Provide a numeric answer; units are not to be included.

In the examples that follow, each entry is paired with its recorded z-score.
[Q] Look up z-score: CCOC(=O)[C@H](CC(C)C)NC(=O)CCC1CC(OC(=O)NCCc2ccc(F)cc2)CC2(CCCC(COC(=O)NCc3ccccc3)O2)O1 (stereo partly drawn)
[A] -0.165

[Q] Look up z-score: `O=C1O[C@@H](c2ccccc2)[C@@H](c2ccccc2)N2[C@@H](c3ccc(O)cc3)[C@]3(C(=O)Nc4ccccc43)[C@@H](C(=O)O)[C@H]12`
[A] -0.934

***
[Q] Look up z-score: `NC(=O)NCC#Cc1ccc2c(c1)[C@]1(C(=O)N2)[C@H](c2ccc(O)cc2)N2[C@H](c3ccccc3)[C@H](c3ccccc3)OC(=O)[C@H]2[C@@H]1C(=O)N1CCCCCCC1`
[A] -0.578
